System: HepG2
PROTOCOL SUMMARY: cytotoxicity call (relative viability < 0.9)
TEST CONTEXT: 10 µM
The campaign covered roughly 39,000 compounds. About 3,300 (8.5%) were called active. Many of the other results were omitted from the sample, so actives are more common in it than they were.
Classes used: active, inactive

TEST SMILES: CCO[C@H]1OC(C(N)=O)=C[C@@H](C)[C@@H]1CCCO
CLASS LABEL: inactive

TEST SMILES: COc1ccc(NC(=O)N(C)C[C@H]2Oc3ccc(NC(=O)Nc4ccc(C(F)(F)F)cc4)cc3CC(=O)N([C@@H](C)CO)C[C@H]2C)cc1
CLASS LABEL: active

TEST SMILES: COc1ccc(NC(=O)Nc2ccc3c(c2)CC(=O)N([C@@H](C)CO)C[C@H](C)[C@@H](CN(C)C(=O)Nc2ccc(C(F)(F)F)cc2)O3)cc1
CLASS LABEL: inactive

TEST SMILES: COc1ccc(NC(=O)Nc2ccc3c(c2)CC(=O)N([C@@H](C)CO)C[C@@H](C)[C@@H](CN(C)C(=O)Nc2ccc(C(F)(F)F)cc2)O3)cc1
CLASS LABEL: inactive

TEST SMILES: C[C@@H]1CN([C@H](C)CO)C(=O)c2cccc(NC(=O)NC3CCCCC3)c2O[C@H]1CN(C)S(=O)(=O)c1cn(C)cn1
CLASS LABEL: inactive

TEST SMILES: C[C@H]1CN([C@@H](C)CO)C(=O)c2c(c3ccccc3n2C)-c2ccccc2CO[C@@H]1CN(C)Cc1ccccc1
CLASS LABEL: inactive

TEST SMILES: C[C@H]1CN([C@@H](C)CO)C(=O)c2c(c3ccccc3n2C)-c2ccccc2CO[C@H]1CN(C)Cc1ccccc1
CLASS LABEL: inactive

TEST SMILES: COc1ccccc1CN(C)C[C@H]1OCc2ccccc2-c2c(n(C)c3ccccc23)C(=O)N([C@H](C)CO)C[C@@H]1C
CLASS LABEL: active

TEST SMILES: COc1ccc(NC(=O)Nc2ccc3c(c2)CC(=O)N([C@H](C)CO)C[C@H](C)[C@H](CN(C)C(=O)Nc2ccc(C(F)(F)F)cc2)O3)cc1
CLASS LABEL: inactive

TEST SMILES: C[C@@H]1CN([C@H](C)CO)C(=O)c2c(c3ccccc3n2C)-c2ccccc2CO[C@H]1CN(C)Cc1ccccc1C(F)(F)F
CLASS LABEL: active

TEST SMILES: Cc1ccc(S(=O)(=O)N(C)C[C@@H]2Oc3ccc(NS(=O)(=O)c4c(C)noc4C)cc3C(=O)N([C@@H](C)CO)C[C@H]2C)cc1
CLASS LABEL: inactive

TEST SMILES: C[C@@H]1CN([C@H](C)CO)S(=O)(=O)c2ccc(C#CC3CC3)cc2O[C@H]1CN(C)C(=O)Cc1ccncc1
CLASS LABEL: inactive

TEST SMILES: C[C@H](CO)N1C[C@H](C)[C@H](CN(C)Cc2ccccc2C(F)(F)F)OCc2ccccc2-c2c(n(C)c3ccccc23)C1=O
CLASS LABEL: inactive

TEST SMILES: COc1ccccc1CNC(=O)C[C@@H]1C[C@H]2c3cc(NC(=O)c4ccc5c(c4)OCO5)ccc3O[C@H]2[C@H](CO)O1
CLASS LABEL: inactive

* * *

Test system: HepG2
PROTOCOL SUMMARY: cytotoxicity call (relative viability < 0.9)
TEST CONTEXT: 10 µM
The whole screen tested about 39,000 compounds, of which about 3,300 (8.5%) were called active. Shown is part of a subset that was picked to be rich in actives.
Outcome codes: true (1) = active, false (0) = inactive

TEST SMILES: Cc1noc(C)c1S(=O)(=O)Nc1ccc2c(c1)C(=O)N([C@H](C)CO)C[C@@H](C)[C@H](CN(C)C(=O)Nc1ccc(C(F)(F)F)cc1)OCCCC[C@@H](C)O2
CLASS LABEL: true (1)

TEST SMILES: Cc1noc(C)c1S(=O)(=O)Nc1ccc2c(c1)C(=O)N([C@H](C)CO)C[C@H](C)[C@H](CN(C)C(=O)Nc1ccc(C(F)(F)F)cc1)OCCCC[C@H](C)O2
CLASS LABEL: false (0)

TEST SMILES: COc1ccc(S(=O)(=O)Nc2ccc3c(c2)CC(=O)N([C@H](C)CO)C[C@H](C)[C@@H](CN(C)Cc2ccc(-c4ccccc4)cc2)O3)cc1
CLASS LABEL: false (0)

TEST SMILES: Cc1noc(C)c1S(=O)(=O)Nc1ccc2c(c1)C(=O)N([C@@H](C)CO)C[C@H](C)[C@H](CN(C)C(=O)Nc1ccc(C(F)(F)F)cc1)OCCCC[C@H](C)O2
CLASS LABEL: false (0)

TEST SMILES: C[C@H](CO)N1C[C@H](C)[C@@H](CN(C)C(=O)Nc2ccc(F)cc2)OCCCC[C@H](C)Oc2ccc(NC(=O)C3CCCCC3)cc2C1=O
CLASS LABEL: false (0)

TEST SMILES: Cc1noc(C)c1S(=O)(=O)Nc1ccc2c(c1)C(=O)N([C@@H](C)CO)C[C@@H](C)[C@@H](CN(C)C(=O)Nc1ccc(C(F)(F)F)cc1)OCCCC[C@@H](C)O2
CLASS LABEL: false (0)

TEST SMILES: COc1ccc(S(=O)(=O)Nc2ccc3c(c2)CC(=O)N([C@@H](C)CO)C[C@@H](C)[C@H](CN(C)Cc2ccc(-c4ccccc4)cc2)O3)cc1
CLASS LABEL: true (1)

TEST SMILES: Cc1noc(C)c1S(=O)(=O)Nc1ccc2c(c1)C(=O)N([C@@H](C)CO)C[C@@H](C)[C@@H](CN(C)C(=O)Nc1ccc(C(F)(F)F)cc1)OCCCC[C@H](C)O2
CLASS LABEL: false (0)

TEST SMILES: Cc1noc(C)c1S(=O)(=O)Nc1ccc2c(c1)C(=O)N([C@H](C)CO)C[C@H](C)[C@H](CN(C)C(=O)Nc1ccc(C(F)(F)F)cc1)OCCCC[C@@H](C)O2
CLASS LABEL: false (0)

TEST SMILES: Cc1noc(C)c1S(=O)(=O)Nc1ccc2c(c1)C(=O)N([C@H](C)CO)C[C@@H](C)[C@@H](CN(C)C(=O)Nc1ccc(C(F)(F)F)cc1)OCCCC[C@@H](C)O2
CLASS LABEL: true (1)

TEST SMILES: Cc1noc(C)c1S(=O)(=O)Nc1ccc2c(c1)C(=O)N([C@@H](C)CO)C[C@H](C)[C@@H](CN(C)C(=O)Nc1ccc(C(F)(F)F)cc1)OCCCC[C@H](C)O2
CLASS LABEL: true (1)

TEST SMILES: C[C@@H]1CN([C@@H](C)CO)C(=O)c2cc(NS(=O)(=O)c3cn(C)cn3)ccc2O[C@@H](C)CCCCO[C@@H]1CN(C)S(=O)(=O)c1cn(C)cn1
CLASS LABEL: false (0)

* * *

Tested on: HepG2
PROTOCOL SUMMARY: cytotoxicity call (relative viability < 0.9)
TEST CONTEXT: 10 µM
Hit rate of the full screen: of about 39,000 compounds, about 3,300 (8.5%) were called active. This is one part of a sample in which actives are shown more often than they occur.
Outcome codes: class 1 (active), class 0 (inactive)

TEST SMILES: Cc1noc(C)c1NC(=O)N(C)C[C@H]1OCCCC[C@@H](C)Oc2ccc(NC(=O)Nc3cccc4ccccc34)cc2C(=O)N([C@H](C)CO)C[C@@H]1C
CLASS LABEL: class 0
//
TEST SMILES: C[C@@H]1CCCCO[C@@H](CN(C)S(=O)(=O)c2ccc(F)cc2)[C@@H](C)CN([C@@H](C)CO)C(=O)c2cc(NC(=O)Cc3ccccc3)ccc2O1
CLASS LABEL: class 1
//
TEST SMILES: Cc1ccc(/C=N/Nc2cnnc(=O)[nH]2)o1
CLASS LABEL: class 0
//
TEST SMILES: C[C@@H]1CCCCO[C@H](CN(C)S(=O)(=O)c2ccc(F)cc2)[C@@H](C)CN([C@@H](C)CO)C(=O)c2cc(NC(=O)Cc3ccccc3)ccc2O1
CLASS LABEL: class 1
//
TEST SMILES: Cc1ccccc1S(=O)(=O)N1C[C@H](O)COC[C@H]2O[C@H](CC(=O)NCc3ccccc3Cl)CC[C@@H]21
CLASS LABEL: class 0
//
TEST SMILES: C[C@@H]1CCCCO[C@H](CN(C)S(=O)(=O)c2ccc(F)cc2)[C@@H](C)CN([C@H](C)CO)C(=O)c2cc(NC(=O)Cc3ccccc3)ccc2O1
CLASS LABEL: class 1
//
TEST SMILES: C[C@@H]1CN([C@H](C)CO)C(=O)c2cc(-c3cccc(C(=O)N(C)C)c3)cnc2O[C@H]1CN(C)S(=O)(=O)c1cccc(F)c1
CLASS LABEL: class 0
